Molecular target: Neuromedin-K receptor (Homo sapiens, UniProt P29371)
Sequence (P29371 whole entry): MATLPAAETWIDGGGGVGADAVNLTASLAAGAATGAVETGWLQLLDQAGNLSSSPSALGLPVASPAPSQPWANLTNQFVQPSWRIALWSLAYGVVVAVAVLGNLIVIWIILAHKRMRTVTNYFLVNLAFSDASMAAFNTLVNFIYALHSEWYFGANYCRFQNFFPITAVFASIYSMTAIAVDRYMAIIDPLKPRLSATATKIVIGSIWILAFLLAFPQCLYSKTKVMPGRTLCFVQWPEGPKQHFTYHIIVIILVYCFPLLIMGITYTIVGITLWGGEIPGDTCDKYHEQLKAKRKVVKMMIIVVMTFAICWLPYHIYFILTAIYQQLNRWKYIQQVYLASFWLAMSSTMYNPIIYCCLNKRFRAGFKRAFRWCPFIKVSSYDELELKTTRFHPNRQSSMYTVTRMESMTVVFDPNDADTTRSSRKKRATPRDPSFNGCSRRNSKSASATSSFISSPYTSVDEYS
Experiment: Inhibition of NK3 receptor (unknown origin) by FLIPR assay
assay.endpoint: IC50 (nM)

[I] C[C@H](NC(=O)c1c(CN2CCC(N3CCCCC3)CC2)c(-c2ccccc2)nc2ccccc12)c1ccccc1
[II] C[C@H](NC(=O)c1c(CN2CCC(N3CCCCC3)CC2)c(-c2cccc(C(F)(F)F)c2)nc2ccccc12)c1ccccc1
Pick the one with the larger IC50: I vs II // return label of chosen record
II
(II: 2500 nM, I: 8 nM)
